Where do these numbers come from? They come from paper PMC5540273.

test system: MAPKAPK2; details: concentration: 1 μM, replicates: in singlicate; n = 1
Entries and their %Inh values follow.
Write it as a number; the unit % goes unstated.

>>> print(df.to_string())
                                   molecule  targetofassay  valuekind  readoutunit  val
0  COc1ccc(CSc2nnc(-c3ccc4nccn4c3)o2)cc1C(F)(F)F       MAPKAPK2       %Inh            %   33
1  COc1cccc(CNC(=O)NC2CCN(c3ccnc(Nc4ccc(F)cc4)n3)C2)c1 (stereo not drawn) [GSK1379723]       MAPKAPK2       %Inh            %   16

Reported %Inh for Cc1c(Cn2c3ccccc3n3c(=O)cc(N4CCOCC4)nc23)cccc1C(F)(F)F [GSK2306394] was 0

Reported %Inh for CC(C)c1ccc(O)cc1Nc1ccnc2ccc(C(F)(F)F)cc12 [GW482059] was 16

Reported %Inh for Cc1ccc(NC(=O)c2ccc(Cl)cc2)cc1-c1ccc(C(=O)Nc2ccncc2)cc1 [GSK1398467] was 24

Reported %Inh for COc1ccc(Nc2nccc(-c3ccc(NC(=O)c4cc5cc(F)ccc5[nH]4)cc3)n2)cc1 [GSK1229496] was 0

Reported %Inh for NS(=O)(=O)c1cccc(N/C=C2\C(=O)Nc3ccc(S(=O)(=O)Cc4c(Cl)cccc4Cl)cc32)c1 [GSK398099] was 20

Reported %Inh for Cc1ccccc1Cn1ccn2c(=O)cc(N3CCOCC3)nc12 [GSK2269905] was 19

Reported %Inh for CSc1ccc(-c2nc3n(c2-c2ccncc2)CCC3)cc1 [SKF-105561] was 10

* * *

test system: CLK1; details: concentration: 1 μM, replicates: in singlicate; n = 1
Entries and their %Inh values follow.
Write it as a number; the unit % goes unstated.

Here is how some compounds turned out for %Inh.
                                   compound  val
0  CNCc1ccc2nc(NC(=O)c3ccc(C(C)(C)C)cc3)cn2c1   87
1  O=C(Nc1n[nH]c2nc(-c3cccs3)c(Br)cc12)C1CCCC1    0
2  COC(=O)C(NC(=O)NC1CCN(c2ccnc(Nc3ccc(F)cc3)n2)C1)c1ccccc1 (centres unmarked)    9
3  COc1cccc(C2=C(Nc3cc(Cl)c(O)c(Cl)c3)C(=O)NC2=O)c1   46

Okay, next one:
Reported %Inh for COc1ccc(CSc2nnc(-c3ccc4c(c3)CCO4)o2)cc1 was 64

* * *

system: PRKD3; settings: concentration: 1 μM, replicates: in singlicate; n = 1
Tag: met if measured %Inh is not below 10%, not met if it is.

>>> df
                                   compound  classification
0  Cc1c(Cn2c3ccccc3n3c(=O)cc(N4CCOCC4)nc23)cccc1C(F)(F)F [GSK2306394]             met

Exercise: # check: %Inh of COc1ccc(-c2coc3ccc(-c4nnc(C)o4)cc23)cc1 is greater than or equal to 10%
Key: met

* * *

Entries and their %Inh values follow.
system: PAK7; conditions: concentration: 1 μM, replicates: in singlicate; n = 1

Here is how some compounds turned out for %Inh.
>>> df
                                   compound  val
0  CS(=O)(=O)CCNCc1nc(-c2ccc3ncnc(Nc4ccc5c(cnn5Cc5ccccc5)c4)c3c2)cs1.Cl.Cl [GW569716]   0%
1  Cc1ccc(NC(=O)Nc2ccc(Cl)c(C(F)(F)F)c2)cc1-c1ccc(C(=O)Nc2ccncc2)cc1 [GSK1398470]   2%
2  CC(=O)c1cccc(NC(=O)NC2CCN(c3ccnc(Nc4ccc(F)cc4)n3)C2)c1 (stereo not shown) [GSK1379710]  20%

Okay, next one:
Reported %Inh for CCc1ccc(-c2ccc3c(c2)-c2n[nH]cc2S(=O)(=O)N3C)cc1 was 0%

* * *

tested on: BUB1
Hi! Just check whether Kd is below 0.9 µM. Below gives Y, equal or above gives N.

Exercise: Please let me know if CSc1ccc(-c2nc3n(c2-c2ccncc2)CCC3)cc1 shows Kd below 0.9 µM.
Key: Y

* * *

system: VRK2; settings: concentration: 1 μM, replicates: in singlicate; n = 1
valueKind: %Inh (%)
Write it as a number; the unit % goes unstated.

Here is how some compounds turned out for %Inh.
>>> print(df.to_string())
                                   compound  readoutunit  val
0     Fc1ccc(-c2nn3cccc(F)c3c2-c2ccncc2)cc1            %   22
1  Cc1ccc(NC(=O)Nc2ccc(Cl)c(C(F)(F)F)c2)cc1-c1ccc(C(=O)Nc2ccncc2)cc1            %    8
2  CNc1nc(-c2ccc3c(N)n[nH]c3c2)cc(N2C[C@@H](C(=O)Nc3ccccc3)CC[C@H]2C)n1            %    0
3  COC(=O)C(Cc1ccccc1)NC(=O)NC1CCN(c2ccnc(Nc3ccc(F)cc3)n2)C1 (stereo not drawn)            %   38
4        CCCCc1nn2ncccc2c1-c1ccnc(NC2CC2)n1            %    4

Reported %Inh for c1ccc(-c2ccnc3[nH]ccc23)cc1 was 27

Reported %Inh for COC(=O)c1cccc(NC(=O)NC2CCN(c3ccnc(Nc4ccc(OC)cc4)n3)C2)c1 (stereo not drawn) was 0

Reported %Inh for CC(=O)c1cccc(NC(=O)NC2CCN(c3ccnc(Nc4ccc(F)cc4)n3)C2)c1 (stereo not drawn) was 19

Reported %Inh for O=C1NC(=O)C(c2ccc(Cl)cc2)=C1Nc1cccc(Cl)c1 was 90.5

* * *

tested on: BUB1; conditions: concentration: 1 μM, replicates: in singlicate; n = 1
Entries and their %Inh values follow.
Write it as a number; the unit % goes unstated.

                                   compound  targetofassay  val
0  CCc1ccc(-c2ccc3c(c2)-c2n[nH]cc2S(=O)(=O)N3C)cc1           BUB1    0

Reported %Inh for COc1ccc2cc(-c3nc(-c4ccccc4C(C)C)[nH]c3-c3ccncc3)ccc2c1 was 89

Reported %Inh for O=c1cc(N2CCOCC2)nc2n(Cc3cccc(Cl)c3Cl)c3ccccc3n12 was 0

Reported %Inh for Fc1ccc(-c2nn3cccc(F)c3c2-c2ccncc2)cc1 was 53

Reported %Inh for COC(=O)C(Cc1ccccc1)NC(=O)NC1CCN(c2ccnc(Nc3ccc(F)cc3)n2)C1 (stereo not shown) was 32

Reported %Inh for Fc1ccc(-c2nc[nH]c2-c2ccncc2)cc1 was 84

* * *

test system: PHKG1; conditions: concentration: 1 μM, replicates: in singlicate; n = 1
Entries and their %Inh values follow.

Here is how some molecules turned out for %Inh.
In [3]: df
Out[3]:
                                   molecule  valuekind  val
0  Cn1cncc1C(=O)NC1CCN(c2ccnc(Nc3ccc(F)cc3)n2)C1 (centres unmarked) [GSK1379717]       %Inh   0%
1  Nc1cccc(-c2ccc3c(N)n[nH]c3c2)n1 [GSK2192730]       %Inh   0%
2  CN1c2ccc(-c3ccc(C(N)=O)cc3)cc2-c2[nH]ncc2S1(=O)=O       %Inh   0%
3  Cc1nccc(-c2c(-c3ccc(F)cc3)ncn2CCCN2CCOCC2)n1.Cl [SB-282975]       %Inh  33%

Reported %Inh for COC(=O)c1cccc(NC(=O)NC2CCN(c3ccnc(Nc4ccc(F)cc4)n3)C2)c1 (centres unmarked) [GSK1379725] was 0%

* * *

tested on: FYN; settings: concentration: 1 μM, replicates: in singlicate; n = 1
Hi! Just check whether %Inh is below 20%. Below gives true, equal or above gives false.

                                   molecule  classification
0  Cc1ccc(NC(=O)c2ccc(Cl)cc2)cc1-c1ccc(C(=O)Nc2ccncc2)cc1            true
1  COC(=O)C(NC(=O)NC1CCN(c2ccnc(Nc3ccc(F)cc3)n2)C1)c1ccccc1 (centres unmarked)           false
2  CC(=O)c1cccc(NC(=O)NC2CCN(c3ccnc(Nc4ccc(F)cc4)n3)C2)c1 (centres unmarked)           false
3  Cc1ccc(NC(=O)Nc2ccc(Cl)c(C(F)(F)F)c2)cc1-c1ccc(C(=O)Nc2ccncc2)cc1           false
4  CC(=O)c1c(C)c2cnc(Nc3ccn(C)n3)nc2n(C2CCCC2)c1=O            true

Exercise: Please let me know if Cc1ccccc1-c1cc(-c2c[nH]nc2-c2ccccn2)ccn1 shows %Inh below 20%.
Key: true

* * *

system: p38-alpha; construct: gene MAPK14
Entries and their pKd values follow.
Field pKd (float): negative decimal logarithm of the concentration in molar.

>>> df
                                   compound   val
0  COc1nccc(-c2c(-c3ccc(F)cc3)ncn2CCCN2CCOCC2)n1 [SB-282852]  6.80

Reported pKd for Cc1ccccc1-c1cc(-c2c[nH]nc2-c2ccccn2)ccn1 [GW680061] was 6.89
